- study conditions: buffer; pH 7.4; 200.0 µM
Each entry below carries its reported solubility kinetic.

See these solved cases before continuing.
# solubility kinetic lookup, item `Cl.OCCNCCNCc1ccccc1OCc1ccccc1`
> 50.5 µg/mL

# solubility kinetic lookup, item CC(OC(=O)c1ccc(Cl)nc1)C(=O)NC(C)(C)C (centres undefined)
> 42.7 µg/mL

# solubility kinetic lookup, item `Cl.O=C(NCCCn1ccnc1)c1ccc(F)cc1`
> 42.6 µg/mL

# input for lookup
# solubility kinetic lookup, item `Nc1ccccc1SCC(=O)Nc1ccc2c(c1)OCO2`
> 45.4 µg/mL

====

- study conditions: buffer; pH 7.4; 200.0 µM
quantity kind: log10 solubility kinetic (log10 of the value in µg/mL)
// stored as log10 of solubility kinetic expressed in µg/mL

# log10 solubility kinetic lookup, item `OC1CCN(Cc2cccc3ccccc23)CC1`
1.47

# log10 solubility kinetic lookup, item `COc1ccc(NC(=O)Nc2c(SC)nsc2SC)cc1`
0.26

====

- study conditions: buffer; pH 7.4; 200.0 µM
quantity kind: solubility kinetic

See these solved cases before continuing.
# solubility kinetic lookup, item `CC(C)OCc1ccc(C(=O)N2CCN(CC(=O)N3CCCC3)CC2)cc1`
> 56 µg/mL

# solubility kinetic lookup, item O=C(O)C1CCCN1S(=O)(=O)c1ccc(F)cc1 (configuration not stated)
> 41 µg/mL

# solubility kinetic lookup, item `Cc1cc(C)cc(C(=O)NCC(=O)OCC(=O)NC2CC2)c1`
> 45.7 µg/mL

# solubility kinetic lookup, item CC(C)(C)C(O)(CC#CCN1CCCC1)c1ccccc1.Cl (configuration not stated)
> 48.3 µg/mL

# input for lookup
# solubility kinetic lookup, item `Cc1ccc(-c2noc(=O)n2CC(=O)c2ccc(Cl)cc2)cc1`
< 0.4 µg/mL

====

Each entry below carries its reported solubility kinetic.
- study conditions: buffer; pH 7.4; 200.0 µM
Report the value in µg/mL with no unit label.

See these solved cases before continuing.
# solubility kinetic lookup, item `NS(=O)(=O)c1ccc(CNC(=O)c2cc(=O)c3ccccc3o2)cc1`
1.7

# solubility kinetic lookup, item `O=C(NC1CC1)c1cc(OCC(F)(F)F)ccc1OCC(F)(F)F`
44.3

# input for lookup
# solubility kinetic lookup, item `CC(C)N(CCn1cnc2c([nH]c3ccccc32)c1=O)C(C)C`
24.5

====

- study conditions: buffer; pH 7.4; 200.0 µM
Each entry below carries its reported solubility kinetic.

See these solved cases before continuing.
# solubility kinetic lookup, item `COc1ccccc1OCC(=O)Nc1ccc2c(c1)n(C)c(=O)n2C`
> 51.2 µg/mL

# solubility kinetic lookup, item `Cc1cccc(Nc2c([N+](=O)[O-])c(=O)oc3ccccc23)c1`
< 0.3 µg/mL

# solubility kinetic lookup, item CC(NC(=O)COC(=O)Cn1cc(C(F)(F)F)ccc1=O)c1ccccc1 (stereo unspecified)
> 57.3 µg/mL

# solubility kinetic lookup, item `CSc1nsc(SCC(=O)Nc2ccc(O)c(C(=O)O)c2)n1`
> 53.6 µg/mL

# solubility kinetic lookup, item `Cc1ccc(S(=O)(=O)NCC(=O)OCC(=O)NCc2ccco2)cc1`
> 55 µg/mL

# solubility kinetic lookup, item `O=C(COC(=O)Cc1ccc(Br)cc1)NC1CCCC1`
> 51 µg/mL

# solubility kinetic lookup, item CC(C)CN(C(=O)c1ccco1)C1CCS(=O)(=O)C1 (stereo unspecified)
> 42.8 µg/mL

# solubility kinetic lookup, item `NC(=O)CSc1nccn1Cc1ccc2c(c1)OCO2`
> 43.7 µg/mL

# solubility kinetic lookup, item CC1(C)C2CCC1(C)C(OC(=O)C[n+]1ccccc1N)C2.[Br-] (stereo unspecified)
> 55.4 µg/mL

# solubility kinetic lookup, item S=C(NCC1CCCO1)NC1CC1 (stereo unspecified)
> 30 µg/mL

# input for lookup
# solubility kinetic lookup, item CC(C)(C)NCC(O)COc1cccc2[nH]c(=O)[nH]c12.Cl (stereo unspecified)
> 47.4 µg/mL

====

- study conditions: buffer; pH 7.4; 200.0 µM
quantity kind: solubility kinetic

# solubility kinetic lookup, item CC1CN(S(=O)(=O)c2cccc(C(=O)NCc3ccccn3)c2)CC(C)O1 (stereo not drawn)
> 58.4 µg/mL

# solubility kinetic lookup, item `COc1ccc(C)c2sc(=NC(=O)c3cccc(N4C(=O)CCC4=O)c3)n(C)c12`
< 0.3 µg/mL

# input for lookup
# solubility kinetic lookup, item `Cc1ccc(C(=O)OCC(=O)NCc2cccs2)s1`
> 44.3 µg/mL

====

- study conditions: buffer; pH 7.4; 200.0 µM
quantity kind: solubility kinetic

See these solved cases before continuing.
# solubility kinetic lookup, item `NC(=O)CSc1nc(C2CC2)nc2sc3c(c12)CCCC3`
< 0.0002 mg/mL

# solubility kinetic lookup, item CC(NC(=O)COC(=O)CN1C(=O)c2ccccc2C1=O)c1ccccc1 (stereo unspecified)
> 0.055 mg/mL

# solubility kinetic lookup, item `Cc1nn(C)c(C)c1NC(=O)CCl.Cl`
> 0.0357 mg/mL

# solubility kinetic lookup, item `Cc1ccc(-c2noc(CCC(=O)NC3CC3)n2)cc1`
> 0.0407 mg/mL

# solubility kinetic lookup, item `CC(C)Sc1nc2ncnc(N)c2[nH]1`
> 0.0314 mg/mL

***
# solubility kinetic lookup, item `O=C(NC(=S)N1CCCC1)c1ccccc1`
> 0.0351 mg/mL

====

- study conditions: buffer; pH 7.4; 200.0 µM
quantity kind: solubility kinetic

# solubility kinetic lookup, item `C=CCn1c(=O)c(C(=O)Nc2ccc(C)cc2)c(O)c2ccccc21`
< 0.4 µg/mL

# solubility kinetic lookup, item `O=C(OCc1cccc(F)c1)c1ccc2c(=O)n3c(nc2c1)CCC3`
18.5 µg/mL

# solubility kinetic lookup, item `COc1ccc(CC(=O)NCCN2CCOCC2)cc1`
> 41.8 µg/mL

# solubility kinetic lookup, item `O=C(CCSc1ccc(Cl)cc1)NCc1ccncc1`
> 46 µg/mL

# solubility kinetic lookup, item CC(C)(C)C(=O)NC(CC(=O)O)c1ccccc1 (stereo unspecified)
> 37.4 µg/mL

***
# solubility kinetic lookup, item `CC(=O)c1ccc2noc(-c3cccc(F)c3)c2c1`
6.5 µg/mL

# solubility kinetic lookup, item `O=C(COC(=O)c1cccnc1Cl)NCc1cccs1`
44.1 µg/mL

# solubility kinetic lookup, item `COc1cc2nc(CN3CCN(S(=O)(=O)c4cc(C)ccc4C)CC3)[nH]c(=O)c2cc1OC`
9.7 µg/mL

# solubility kinetic lookup, item Cc1ccc(NC(=O)C23CCC(C)(C(=O)[C@H]2Br)C3(C)C)cc1 (stereo partly specified)
43.2 µg/mL

# solubility kinetic lookup, item `N#CCc1ccc(OC(=O)c2cccnc2Cl)cc1`
> 40.9 µg/mL

# solubility kinetic lookup, item `COc1ccc(F)cc1S(=O)(=O)Nc1ccncc1`
> 42.3 µg/mL

# solubility kinetic lookup, item Clc1ccccc1C1NCc2ccccc2-n2cccc21 (stereo unspecified)
1.4 µg/mL

# solubility kinetic lookup, item O=C1CSC(c2ccccc2F)N1 (stereo unspecified)
> 29.6 µg/mL

# solubility kinetic lookup, item COc1cc2ccccc2cc1C(=O)N1CC(C)CC(C)C1 (stereo unspecified)
> 44.6 µg/mL

# solubility kinetic lookup, item Cc1ccccc1-c1nnc(SCC(=O)N(C)C2CCS(=O)(=O)C2)n1C (stereo unspecified)
> 59.2 µg/mL

# solubility kinetic lookup, item CN(C)c1ccc(C2N(C)C(=O)c3ccccc3N2C)cc1 (stereo unspecified)
40.9 µg/mL

# solubility kinetic lookup, item `CCOC(=O)N1CCN(C(=O)Nc2cccc3ccccc23)CC1`
> 49.1 µg/mL

# solubility kinetic lookup, item `O=C(CSc1nc2ccccc2c(=O)n1-c1ccccc1F)NC1CC1`
> 55.4 µg/mL

# solubility kinetic lookup, item `CCOc1ccc(C(=O)Nc2nc(C)c(C(=O)OC)s2)cc1`
< 0.3 µg/mL

# solubility kinetic lookup, item `COc1ccc(Cl)cc1C(=O)O/N=C(\N)c1ccccn1`
> 45.9 µg/mL

# solubility kinetic lookup, item `COc1ccccc1NC(=O)C1CCN(S(C)(=O)=O)CC1`
> 46.9 µg/mL

====

- study conditions: buffer; pH 7.4; 200.0 µM
quantity kind: solubility kinetic (µg/mL)
Report the value in µg/mL with no unit label.

# solubility kinetic lookup, item `CCOc1ccc(/C=C\c2nc(O)c([N+](=O)[O-])c(=O)[nH]2)cc1OCC`
29

***
# solubility kinetic lookup, item `Cc1cccc2cc(CNCc3ccccc3)c(Cl)nc12`
3.8

# solubility kinetic lookup, item `Cc1cnc(NC(=O)c2ccc(-c3ccc([N+](=O)[O-])cc3)o2)s1`
1.9

# solubility kinetic lookup, item `O=C(CCNC(=O)c1ccc([N+](=O)[O-])cc1)Nc1ccc(F)cc1`
21.8

# solubility kinetic lookup, item `COc1ccc(CN(C)C(=O)COC(=O)c2cc([N+](=O)[O-])ccc2N2CCCC2)c(OC)c1OC`
10.2

# solubility kinetic lookup, item `Cc1cc(C(=O)NC2CC2)c2ccccc2n1`
29.5

# solubility kinetic lookup, item `COc1ccccc1NC(=O)COC(=O)CCC1CCCC1`
42.1

# solubility kinetic lookup, item CC(C)C(=O)NC(c1ccc(Cl)cc1Cl)c1ccc2cccnc2c1O (stereo unspecified)
2.8

Data provenance: PubChem BioAssay AID1996
